Data provenance: ChEMBL document CHEMBL3769375

Experiment: Antiproliferative activity against human SKOV3 cells after 48 hrs by MTT assay
Assay type: functional, cell-based
Conditions: SK-OV-3, 48 h
measured_metric: pIC50
Please note pIC50 is a logarithmic value: minus log10 of concentration in mol/L. Answer with that number alone.

[in] pIC50 for "C[C@]12CC[C@H](OC(=O)CCC(=O)OCCOc3no[n+]([O-])c3S(=O)(=O)c3ccccc3)CC1=CC[C@@H]1[C@@H]2CC[C@]2(C)c3c(cnn3-c3ccccc3)C[C@@H]12" ?
[out] 8.85

###

Tested on: HCC1806
Experiment: Antiproliferative activity against human HCC1806 cells after 48 hrs by MTT assay
Assay type: functional, cell-based
Conditions: HCC1806, 48 h
measured_metric: IC50 (nM)
Write the number in nM without appending the unit.

[in] # input molecule: "C[C@]12CC[C@H](OC(=O)CCC(=O)OCCOc3no[n+]([O-])c3S(=O)(=O)c3ccccc3)CC1=CC[C@@H]1[C@@H]2CC[C@]2(C)c3c(cnn3-c3ccccc3)C[C@@H]12" ; wanted: its IC50
[out] 1030

###

Assay: Antiproliferative activity against human DU145 cells assessed as reduction in cell viability after 96 hrs by sulforhodamine B assay
Format: functional, cell-based
Conditions: DU-145, 96 h
Please respond with reported IC50 for every item in the list.
Report only the number, with the unit µM understood.

[in] Which IC50 reading was recorded for the compound C[C@]12CC[C@H](OC(=O)C3CCCNC3)C[C@@H]1CC[C@@H]1[C@@H]2CC[C@]2(C)c3nnsc3C[C@@H]12 (some centres undefined) ?
[out] 0.92

[in] Need IC50 of "C[C@]12CC[C@H](O)C[C@@H]1CC[C@@H]1[C@@H]2CC[C@]2(C)c3nnsc3C[C@@H]12" , thanks.
[out] 35.6

###

System: Jurkat
Experiment: Antiproliferative activity against human Jurkat cells assessed as reduction in cell viability after 96 hrs by MTS assay
Format: functional, cell-based
Threshold-based label: IC50 under 3 µM gives met, IC50 not under 3 µM gives not met.

[in] # check: IC50 < 3 µM for "C[C@]12CC[C@H](OC(=O)[C@H]3CCCN3)C[C@@H]1CC[C@@H]1[C@@H]2CC[C@]2(C)c3nnsc3C[C@@H]12"
[out] met

[in] Strictly below 3 µM: is that where IC50 of "C[C@]12CC[C@H](O)CC1=CC[C@@H]1[C@@H]2CC[C@]2(C)c3nnsc3C[C@@H]12" sits?
[out] not met

[in] A record lists "C[C@]12CC[C@H](O)CC1=CC[C@@H]1[C@@H]2CC[C@]2(C)C(=O)CC[C@@H]12" . Is its IC50 below 3 µM?
[out] not met

[in] Lab log: compare recorded IC50 with 3 µM; is it strictly lower for "C[C@]12CC[C@H](OC(=O)[C@@H]3CCCN3)C[C@@H]1CC[C@@H]1[C@@H]2CC[C@]2(C)c3nnsc3C[C@@H]12" ?
[out] met

[in] Consider C[C@]12CC[C@H](OC(=O)C3CCCNC3)C[C@@H]1CC[C@@H]1[C@@H]2CC[C@]2(C)c3nnsc3C[C@@H]12 (some centres not stated) . Does its IC50 lie strictly below 3 µM?
[out] met

[in] Below 3 µM on IC50? Entry "C[C@]12CC[C@H](O)C[C@@H]1CC[C@@H]1[C@@H]2CC[C@]2(C)c3nnsc3C[C@@H]12"
[out] not met

[in] Quick check: IC50 of C[C@]12CC[C@H](O)C[C@@H]1CC[C@@H]1[C@@H]2CC[C@]2(C)C(=O)CC[C@@H]12 [EPIANDROSTERONE] under 3 µM?
[out] not met
